Source: ChEMBL document CHEMBL2203032

Assay explanation: Toxicity in ip dosed human IGROV1 cells xenografted athymic mouse administered qd for 5 days
Assay type: organism-based, IGROV-1
Test parameters: in vivo
Readout type: MTD at 120 h (mg/kg)
Answers are plain numbers, in mg/kg.

Data request: # query: MTD at 120 h of entry `CC[C@H](NC)C(=O)N[C@@H]1C(=O)N2[C@@H](CC[C@@H]1CO)CC[C@H]2C(=O)N[C@@H](c1ccccc1)c1cn(CCCCc2ccc(CCCCn3cc([C@@H](NC(=O)[C@@H]4CC[C@@H]5CC[C@H](CO)[C@H](NC(=O)[C@H](CC)NC)C(=O)N54)c4ccccc4)nn3)cc2)nn1.O=C(O)C(F)(F)F`
Data returned: 5
